B1: CCND1 (parent)
chain: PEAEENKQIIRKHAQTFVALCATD

- Variants of: B1
- ASSAY_NOTES: protein stability index of a GFP-peptide fusion (GPS, HEK-293T) (PSI 1-6); higher = more stable;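 also: lentivirally expressed fusions sorted by FACS into six bins by GFP to DsRed ratio, PSI derived from sequencing read proportions per bin multiplied by bin number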
- SETUP_CONDITIONS: c terminus: a fixed tail appended
Assign 1 (yes) whenever protein stability index does not fall below 3; assign 0 (no) whenever it does.

>  <MUTANT_LABEL>
E2I

>  <LABEL>
0 (no)

$$$$
>  <MUTANT_LABEL>
A22C

>  <LABEL>
0 (no)

$$$$
>  <MUTANT_LABEL>
T16C

>  <LABEL>
1 (yes)

$$$$
>  <MUTANT_LABEL>
K12P

>  <LABEL>
1 (yes)

$$$$
>  <MUTANT_LABEL>
A22N

>  <LABEL>
1 (yes)

$$$$
>  <MUTANT_LABEL>
P1T

>  <LABEL>
0 (no)

$$$$
>  <MUTANT_LABEL>
R11P

>  <LABEL>
1 (yes)

$$$$
>  <MUTANT_LABEL>
P1Q

>  <LABEL>
0 (no)

$$$$
>  <MUTANT_LABEL>
K7E

>  <LABEL>
1 (yes)

$$$$
>  <MUTANT_LABEL>
A19C

>  <LABEL>
1 (yes)

$$$$
>  <MUTANT_LABEL>
E5N

>  <LABEL>
0 (no)

$$$$
>  <MUTANT_LABEL>
V18Q

>  <LABEL>
1 (yes)

$$$$
>  <MUTANT_LABEL>
D24A

>  <LABEL>
1 (yes)

$$$$
>  <MUTANT_LABEL>
N6I

>  <LABEL>
0 (no)

$$$$
>  <MUTANT_LABEL>
T23E

>  <LABEL>
0 (no)

$$$$
>  <MUTANT_LABEL>
A14N

>  <LABEL>
1 (yes)

$$$$
>  <MUTANT_LABEL>
C21K

>  <LABEL>
1 (yes)

$$$$
>  <MUTANT_LABEL>
Q8G

>  <LABEL>
0 (no)

$$$$
>  <MUTANT_LABEL>
C21D

>  <LABEL>
1 (yes)

$$$$
>  <MUTANT_LABEL>
E2C

>  <LABEL>
0 (no)

$$$$
